Values were extracted from patent US20190282703A1.

biological target: human ENPP-1 enzyme (Homo sapiens, UniProt P22413); construct: purchased R&D Systems; test: ENPP1 Enzyme Assay with TMP-pNP Substrate (absorbance at 405 nm); assay type: biochemical
Sequence (P22413 whole entry): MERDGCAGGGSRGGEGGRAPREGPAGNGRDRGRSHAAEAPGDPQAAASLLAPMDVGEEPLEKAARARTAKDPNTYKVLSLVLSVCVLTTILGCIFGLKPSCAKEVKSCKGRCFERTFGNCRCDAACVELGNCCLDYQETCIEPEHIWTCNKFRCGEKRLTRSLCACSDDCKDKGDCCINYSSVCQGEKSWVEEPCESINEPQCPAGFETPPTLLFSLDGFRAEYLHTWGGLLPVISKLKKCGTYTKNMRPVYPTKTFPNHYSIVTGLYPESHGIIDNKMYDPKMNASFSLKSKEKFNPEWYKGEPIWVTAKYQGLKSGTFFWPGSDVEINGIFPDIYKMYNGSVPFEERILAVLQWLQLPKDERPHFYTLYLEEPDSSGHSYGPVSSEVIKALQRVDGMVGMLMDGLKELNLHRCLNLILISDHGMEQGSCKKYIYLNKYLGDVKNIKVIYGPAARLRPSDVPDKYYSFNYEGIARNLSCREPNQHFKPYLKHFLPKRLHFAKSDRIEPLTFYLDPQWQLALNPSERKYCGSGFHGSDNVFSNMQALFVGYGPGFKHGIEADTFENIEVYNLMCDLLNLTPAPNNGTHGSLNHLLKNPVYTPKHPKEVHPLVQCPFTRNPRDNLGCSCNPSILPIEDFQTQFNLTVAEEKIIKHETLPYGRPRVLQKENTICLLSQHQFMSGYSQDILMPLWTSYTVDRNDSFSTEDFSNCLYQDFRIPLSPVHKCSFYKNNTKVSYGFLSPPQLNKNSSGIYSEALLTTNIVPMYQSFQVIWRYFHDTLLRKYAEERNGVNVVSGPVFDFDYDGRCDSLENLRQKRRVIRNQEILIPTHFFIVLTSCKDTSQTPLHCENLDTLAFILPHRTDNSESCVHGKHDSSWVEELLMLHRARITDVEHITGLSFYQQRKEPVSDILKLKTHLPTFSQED
pKi: −log10 of the molar value.
endpoint_name: pKi

                               query_smiles  endpoint_name  recorded_result
0  COc1cc2ncnc(N3CCc4c(cccc4S(N)(=O)=O)C3)c2cc1OC            pKi           < 6.00
1  COc1cc2ncnc(NCCc3cccc(NS(N)(=O)=O)c3)c2cc1OC            pKi           < 6.00
2   Cn1ncc2c(N3CCC(CCNS(N)(=O)=O)CC3)ncnc21            pKi           < 6.00
3  COc1cc2ncnc(N3CCC4(CC3)CN(S(N)(=O)=O)C4)c2cc1OC            pKi     6.00 to 7.00
